Kindly state pIC50 for each of the entries shown.
Biological target: UniProtKB P0DTD1
One number for each entry, as −log10 of the molar value.

| molecule | pIC50 |
| --- | --- |
| CC(C)(C)NC(=O)C(c1cccnc1)N(C(=O)CCl)c1ccc(NC(=O)C(Cl)Cl)cc1 (stereo not shown) | 5.44 |
| CC(C)(C)c1ccc(N(C(=O)C2CO2)C(C(=O)NCc2ccccc2)c2cccnc2)cc1 [(R, S)- and (S, R)-42] | 5.80 |
| CCCCNC(=O)C(c1cccnc1)N(C(=O)CCl)c1ccc(C(C)(C)C)cc1 (stereo not shown) | 5.62 |

Each molecule below has a recorded value; state its pIC50.
1. CC(C)(C)NC(=O)C(c1cccnc1)N(C(=O)CCl)c1cccc(NC(=O)C(Cl)Cl)c1 (stereo not shown)
2. O=C(NCc1ccccc1)C(c1cccnc1)N(C(=O)c1ccco1)c1ccc(-c2ccccc2)cc1 (stereo not shown)
3. CC1OC1C(=O)N(c1ccc(C(C)(C)C)cc1)C(C(=O)NC1CCCCC1)c1cccnc1 [(R, S, R)- and (S, R, S)-35]
4. CC(C)(C)c1ccc(N(C(=O)CCl)C(C(=O)NC2CCCCC2)c2cccnc2)cc1 (stereo not shown)
5. CC(C)(C)NC(=O)C(c1cccnc1)N(C(=O)CCl)c1ccc(C(C)(C)C)cc1 (stereo not shown)
6. CC(C)(C)NC(=O)C(c1cccnc1)N(C(=O)CCl)c1cccc(NC(=O)CCl)c1 (stereo not shown)

*A*
1. 5.66
2. 6.13
3. 5.72
4. 6.31
5. 6.22
6. 5.44

Give pIC50 for each of the items listed below.
1. CC(C)(C)NC(=O)C(c1cccnc1)N(C(=O)CCl)c1ccc(NC(=O)CCl)cc1 (stereo not shown)
2. CC(C)(C)c1ccc(N(C(=O)C2CO2)C(C(=O)NC2CCCCC2)c2cccnc2)cc1 [(R, R)- and (S, S)-30]
3. CC1OC1C(=O)N(c1ccc(C(C)(C)C)cc1)C(C(=O)NC(C)(C)C)c1cccnc1 [(R, S, R)- and (S, R, S)-39]
4. CC(C)(C)NC(=O)C(c1cccnc1)N(C(=O)CCl)c1ccc(-c2ccccc2)cc1 (stereo not shown)
5. CC(C)(C)c1ccc(N(C(=O)C2CO2)C(C(=O)NC2CCCCC2)c2cccnc2)cc1 [(R, S)- and (S, R)-30]

*A*
5.49
5.00
5.36
6.02
6.12

Would you be so kind as to report pIC50 for each listed record?
1. CC(C)(C)c1ccc(N(C(=O)C2OC2(C)C)C(C(=O)NC2CCCCC2)c2cccnc2)cc1 (stereo not shown)
2. CC1OC1C(=O)N(c1ccc(C(C)(C)C)cc1)C(C(=O)NC(C)(C)C)c1cccnc1 [(R, R, S)- and (S, S, R)-39]
3. CC(C)(C)NC(=O)C(c1cccnc1)N(C(=O)CCl)c1ccc(CC2CO2)cc1 (stereo not shown)

*A*
5.60
5.27
5.44
